TARGET OR TEST SYSTEM: 5HT2B receptors (Homo sapiens)
Construct: expressed in transfected cells; host or cells: CHO-K1 cells
Sequence (P41595 whole entry): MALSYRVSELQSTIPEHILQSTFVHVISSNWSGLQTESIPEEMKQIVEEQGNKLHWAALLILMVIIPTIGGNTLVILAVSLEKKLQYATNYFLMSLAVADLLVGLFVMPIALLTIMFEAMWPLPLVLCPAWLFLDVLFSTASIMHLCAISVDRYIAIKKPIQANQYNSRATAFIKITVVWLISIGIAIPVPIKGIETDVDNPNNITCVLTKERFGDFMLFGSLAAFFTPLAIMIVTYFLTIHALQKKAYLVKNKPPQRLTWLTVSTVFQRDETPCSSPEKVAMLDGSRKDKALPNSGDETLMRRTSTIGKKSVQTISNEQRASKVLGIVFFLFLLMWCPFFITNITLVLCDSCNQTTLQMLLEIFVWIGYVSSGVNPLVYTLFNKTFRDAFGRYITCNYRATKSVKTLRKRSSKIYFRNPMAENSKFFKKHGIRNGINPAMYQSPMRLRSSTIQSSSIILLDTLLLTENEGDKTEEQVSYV
MEASUREMENT DESCRIPTION: Human 5-HT2B functional assay in CHO-K1 cells (calcium flux, FLIPR)
Assay type: cell-based
pEC50: −log10 of the molar value.
Please provide measured pEC50 for the entries that follow.

Inquiry: Which pEC50 value is on record for CN1CCN2c3ccccc3CCCC2C1 (stereo not shown) [Example 183] ?
Reply text: < 5.00

Inquiry: What about this compound? CN1CCN2c3ccccc3OCC[C@H]2C1 [Example 132]
Reply text: < 5.00

Inquiry: What about this compound? Clc1ccc2c(c1)OCC[C@H]1CNCCN21 [Example 179]
Reply text: < 5.00

Inquiry: What about this compound? COc1cccc2c1OCC[C@H]1CNCCN21 [Example 241]
Reply text: < 5.00

Inquiry: What about this compound? O=C1CC2CNCCN2c2ccc(Cl)cc2N1 (stereo not shown) [Example 51]
Reply text: < 5.00

Inquiry: What about this compound? O=C1CC2CNCCN2c2cccc(F)c2N1 (stereo not shown) [Example 32]
Reply text: < 5.00

Inquiry: What about this compound? COc1ccc2c(c1)OCC[C@H]1CN(C)CCN21 [Example 232]
Reply text: < 5.00

Inquiry: What about this compound? c1ccc2c(c1)OCC[C@H]1CNCCN21 [Example 169]
Reply text: < 5.00

Inquiry: What about this compound? O=C1C[C@H]2CNCCN2c2ccc(Cl)cc2N1 [Example 55]
Reply text: < 5.00

Inquiry: What about this compound? CN1CCN2c3ccccc3NC(=O)CC2C1 (stereo not shown) [Example 38]
Reply text: < 5.00

###

TARGET OR TEST SYSTEM: 5HT2B receptors (Homo sapiens)
Construct: expressed in transfected cells; host or cells: CHO-K1 cells
MEASUREMENT DESCRIPTION: Human 5-HT2B functional assay in CHO-K1 cells (calcium flux, FLIPR)
Format: cell-based
MEASUREMENT SETUP: CHO-K1 cells over-expressing 5HT2B, calcium flux; read-out: EC50 (μM), 5-HT2B Agonist Activity
MEASURED PARAMETER: EC50

Inquiry: State its EC50 on 5HT2B receptors (Homo sapiens): Oc1ccccc1-c1ccc2c(c1)N1CCNC[C@@H]1CCO2 [Example 200]
Reply text: > 10 µM

Inquiry: What about this molecule? C[C@@H](Oc1ccc2c(c1)N1CCNCC1CC(=O)N2)c1ccccc1F (stereo partly shown) [Example 161]
Reply text: 1 µM

Inquiry: What about this molecule? CC(O)c1ccc(-c2cccc3c2OCC[C@H]2CNCCN32)cc1 (stereo partly shown) [Example 234]
Reply text: 0.3 µM

Inquiry: What about this molecule? CC(C)N1CCN2c3ccccc3OCC[C@H]2C1 [Example 264]
Reply text: > 10 µM

Inquiry: What about this molecule? CCN1C(=O)CC2CNCCN2c2ccc(Cl)cc21 (stereo not shown) [Example 77]
Reply text: > 10 µM

Inquiry: What about this molecule? CC(O)c1cccc(-c2cccc3c2OCC[C@H]2CNCCN32)c1 (stereo partly shown) [Example 233]
Reply text: > 10 µM

Inquiry: What about this molecule? C1=C(c2ccc3c(c2)N2CCNC[C@@H]2CCO3)CCCC1 [Example 209]
Reply text: > 10 µM

Inquiry: What about this molecule? O=C1CC2CNCCN2c2ncccc2N1 (stereo not shown) [Example 150]
Reply text: > 10 µM

Inquiry: What about this molecule? FC(F)(F)c1cccc2c1OCC[C@H]1CNCCN21 [Example 215]
Reply text: > 10 µM

Inquiry: What about this molecule? C1=C(c2ccc3c(c2)N2CCNC[C@@H]2CCO3)CCOC1 [Example 210]
Reply text: 1 µM

Inquiry: What about this molecule? O=C1C[C@H]2CNCCN2c2cc(CCc3ccccc3)ccc2N1 [Example 42]
Reply text: 5 µM

Inquiry: What about this molecule? FCCN1CCN2c3ccccc3OCC[C@@H]2C1 [Example 269]
Reply text: 0.6 µM

Inquiry: What about this molecule? CS(=O)(=O)c1cccc(-c2ccc3c(c2)OCC[C@H]2CNCCN32)c1 [Example 238]
Reply text: > 10 µM

Inquiry: What about this molecule? Cc1cccc(-c2ccc3c(c2)N2CCNC[C@@H]2CCO3)c1 [Example 190]
Reply text: > 10 µM

Inquiry: What about this molecule? FCC(CF)N1CCN2c3ccccc3OCC[C@H]2C1 [Example 265]
Reply text: > 10 µM

Inquiry: What about this molecule? C[C@H](Oc1ccc2c(c1)N1CCNCC1CC(=O)N2)c1ccccc1F (stereo partly shown) [Example 162]
Reply text: 1 µM

Inquiry: What about this molecule? CCN1C(=O)CC2CN(C)CCN2c2ccc(Cl)cc21 (stereo not shown) [Example 78]
Reply text: > 10 µM

Inquiry: What about this molecule? COc1ccccc1-c1ccc2c(c1)N1CCNC[C@@H]1CCO2 [Example 192]
Reply text: 1 µM

Inquiry: What about this molecule? O=C1NC[C@@H]2CNCC[C@@H]2c2ccccc21 (relative stereo) [Example 180]
Reply text: > 10 µM

Inquiry: What about this molecule? C[C@H](Cc1ccccc1)Oc1ccc2c(c1)N1CCNCC1CC(=O)N2 (stereo partly shown) [Example 159]
Reply text: > 10 µM

Inquiry: What about this molecule? O=C1CC2CNCCN2c2cc(-c3ccoc3)ccc2N1 (stereo not shown) [Example 69]
Reply text: 0.09 µM

Inquiry: What about this molecule? CC(O)c1cccc(-c2ccc3c(c2)N2CCNC[C@@H]2CCO3)c1 (stereo partly shown) [Example 222]
Reply text: 0.4 µM

Inquiry: What about this molecule? CS(=O)(=O)c1ccccc1-c1ccc2c(c1)N1CCNC[C@@H]1CCO2 [Example 195]
Reply text: 0.3 µM

Inquiry: What about this molecule? CN1CCN2c3cc(-c4cccc(S(C)(=O)=O)c4)ccc3OCC[C@H]2C1 [Example 221]
Reply text: > 10 µM

Inquiry: What about this molecule? CC(=O)c1ccc(-c2ccc3c(c2)N2CCNC[C@@H]2CCO3)cc1 [Example 199]
Reply text: 8 µM

Inquiry: What about this molecule? O=C1CC2CNCCN2c2cc(OCc3ccccc3F)ccc2N1 (stereo not shown) [Example 155]
Reply text: > 10 µM

Inquiry: What about this molecule? c1ccc(-c2cccc3c2OCC[C@H]2CNCCN32)cc1 [Example 223]
Reply text: > 10 µM

Inquiry: What about this molecule? O=C1CC2CNCCN2c2cc(-c3ccc4ccccc4c3)ccc2N1 (stereo not shown) [Example 57]
Reply text: > 10 µM

Inquiry: What about this molecule? COc1ccccc1-c1ccc2c(c1)N1CCNCC1CC(=O)N2 (stereo not shown) [Example 63]
Reply text: > 10 µM

Inquiry: What about this molecule? O=C1CC2CNCCN2c2cc(-c3cccc4ccccc34)ccc2N1 (stereo not shown) [Example 67]
Reply text: > 10 µM

Inquiry: What about this molecule? CC(O)c1cccc(-c2ccc3c(c2)OCC[C@H]2CNCCN32)c1 (stereo partly shown) [Example 229]
Reply text: > 10 µM

Value source: patent US8546377B2
